These entries and their values trace back to patent US20240199624A1.

# ASSAY SYSTEM: human MutSbeta (Homo sapiens, UniProt P20585+P43246)
# Construct: Msh2(1-934), Gene ID NP_000242.1; Msh3(1-1137), Gene ID J04810.1
# Sequence (P43246 whole entry): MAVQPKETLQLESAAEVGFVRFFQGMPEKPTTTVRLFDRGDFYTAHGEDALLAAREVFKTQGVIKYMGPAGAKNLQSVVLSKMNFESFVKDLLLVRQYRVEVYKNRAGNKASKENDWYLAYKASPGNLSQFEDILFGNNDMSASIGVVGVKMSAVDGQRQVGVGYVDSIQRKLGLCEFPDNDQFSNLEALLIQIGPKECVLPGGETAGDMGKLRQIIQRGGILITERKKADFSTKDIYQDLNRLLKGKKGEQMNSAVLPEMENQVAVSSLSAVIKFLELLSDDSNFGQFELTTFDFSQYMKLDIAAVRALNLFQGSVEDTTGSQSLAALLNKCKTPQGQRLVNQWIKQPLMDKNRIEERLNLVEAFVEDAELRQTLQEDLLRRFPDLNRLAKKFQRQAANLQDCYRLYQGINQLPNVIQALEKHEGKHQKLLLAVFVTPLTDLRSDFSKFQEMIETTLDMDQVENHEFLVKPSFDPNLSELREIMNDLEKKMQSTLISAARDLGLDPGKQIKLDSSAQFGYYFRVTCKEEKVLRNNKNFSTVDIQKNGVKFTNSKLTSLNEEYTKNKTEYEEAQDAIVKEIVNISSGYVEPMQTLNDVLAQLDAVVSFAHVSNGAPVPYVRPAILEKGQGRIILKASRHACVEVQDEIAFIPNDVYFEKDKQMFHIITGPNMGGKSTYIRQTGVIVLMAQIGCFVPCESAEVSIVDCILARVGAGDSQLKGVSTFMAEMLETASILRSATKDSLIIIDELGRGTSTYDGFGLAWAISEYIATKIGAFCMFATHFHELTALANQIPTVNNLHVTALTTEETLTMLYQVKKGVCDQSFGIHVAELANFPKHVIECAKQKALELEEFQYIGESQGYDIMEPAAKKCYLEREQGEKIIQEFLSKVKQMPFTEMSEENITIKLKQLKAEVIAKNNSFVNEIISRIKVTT
# Sequence (P20585 whole entry): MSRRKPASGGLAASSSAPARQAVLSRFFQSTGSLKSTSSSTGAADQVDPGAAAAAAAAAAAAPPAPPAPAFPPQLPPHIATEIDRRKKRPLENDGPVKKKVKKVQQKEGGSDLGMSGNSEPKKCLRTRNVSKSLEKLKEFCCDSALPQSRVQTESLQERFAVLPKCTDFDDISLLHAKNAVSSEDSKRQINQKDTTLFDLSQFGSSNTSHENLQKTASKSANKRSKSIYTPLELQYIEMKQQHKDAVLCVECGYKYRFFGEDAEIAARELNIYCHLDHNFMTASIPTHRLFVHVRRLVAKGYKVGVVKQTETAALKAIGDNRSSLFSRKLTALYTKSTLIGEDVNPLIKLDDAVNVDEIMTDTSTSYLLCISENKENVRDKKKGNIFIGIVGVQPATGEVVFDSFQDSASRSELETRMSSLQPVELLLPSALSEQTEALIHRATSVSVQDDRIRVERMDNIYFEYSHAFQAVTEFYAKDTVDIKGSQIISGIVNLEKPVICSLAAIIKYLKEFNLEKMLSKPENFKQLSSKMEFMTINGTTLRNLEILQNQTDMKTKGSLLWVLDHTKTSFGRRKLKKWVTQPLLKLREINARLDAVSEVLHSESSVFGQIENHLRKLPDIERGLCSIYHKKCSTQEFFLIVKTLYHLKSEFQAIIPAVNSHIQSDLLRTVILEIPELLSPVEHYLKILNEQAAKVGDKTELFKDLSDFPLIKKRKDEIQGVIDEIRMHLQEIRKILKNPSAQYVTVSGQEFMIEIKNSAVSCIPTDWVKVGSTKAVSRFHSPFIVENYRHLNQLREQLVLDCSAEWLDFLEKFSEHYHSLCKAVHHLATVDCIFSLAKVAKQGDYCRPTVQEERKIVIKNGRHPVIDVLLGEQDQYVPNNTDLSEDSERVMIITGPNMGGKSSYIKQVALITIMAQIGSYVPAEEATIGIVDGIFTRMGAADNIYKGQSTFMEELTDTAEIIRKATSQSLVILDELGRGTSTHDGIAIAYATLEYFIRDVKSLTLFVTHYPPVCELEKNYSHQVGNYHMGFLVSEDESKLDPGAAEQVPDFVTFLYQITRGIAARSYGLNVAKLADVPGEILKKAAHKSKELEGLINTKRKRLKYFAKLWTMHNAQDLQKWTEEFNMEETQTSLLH
# MEASUREMENT DESCRIPTION: P33 SPA 1.1
# Type: biochemical
# CONDITION CONTEXT: Table 5B; assay repeated under similar conditions
# Method: P33 SPA: Enzyme human MutSbeta (Msh2(1-934), Gene ID NP_000242.1, Msh3(1-1137), Gene ID J04810.1) and 22 bp biotin-labeled DNA containing a GT-mismatch (purchased from Curia Global, TOP 5′-[…]-3′; BOT 3′-AGTAGCTAGGC - - - CGAAGTCTACC-5′-Biotin) were pre-incubated at equimolar concentration for 15 min at room temperature (“RT”) in assay buffer (25 mM HEPES pH=7.5, 150 mM KCl, 2 mM MgCl2, 2 mM GSH, 0.01% Tween-20). […]
pIC50: −log10 of the molar value.
pIC50 overview
QUANTITY KIND: pIC50

[
  {
    "COMPOUND": "COc1ccc(Nc2nc(N3CCN(C)CC3)nc3nccnc23)cc1Cl [Compound 30]",
    "DATA VALUE": 4.55
  },
  {
    "COMPOUND": "Cc1ccc(Nc2nc(N3CCCN(C)CC3)nc3nccnc23)cc1C [Compound 23]",
    "DATA VALUE": 4.19
  },
  {
    "COMPOUND": "Cc1ccc(CNc2nc(N3CCCN(C)CC3)nc3nccnc23)cc1C [Compound 28]",
    "DATA VALUE": 3.88
  },
  {
    "COMPOUND": "Cc1cnc2nc(N3CCN(C)CC3)nc(Nc3ccc(C)c(C)c3)c2n1 [Compound 38]",
    "DATA VALUE": 5.02
  },
  {
    "COMPOUND": "Cc1cccc(Nc2nc(N3CCN(C)CC3)nc3nccnc23)c1C [Compound 39]",
    "DATA VALUE": 4.44
  },
  {
    "COMPOUND": "CCC(=O)Nc1cccc(Nc2nc(N3CCCN(C)CC3)nc3nccnc23)c1 [Compound 35]",
    "DATA VALUE": 4.26
  },
  {
    "COMPOUND": "Cc1cc(Nc2nc(N3CCN(C)CC3)nc3nccnc23)ccc1C(N)=O [Compound 41]",
    "DATA VALUE": 4.30
  },
  {
    "COMPOUND": "CCC(=O)Nc1cccc(Nc2nc(N3CCN(C)CC3)nc3nccnc23)c1 [Compound 37]",
    "DATA VALUE": 3.92
  },
  {
    "COMPOUND": "Cc1ccc(Nc2nc(N3CCN(C)CC3)nc3nccnc23)cc1S(N)(=O)=O [Compound 43]",
    "DATA VALUE": 4.23
  }
]
